- experiment-summary: VP16 counterscreen qHTS for inhibitors of ROR gamma transcriptional activity;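 note: Gal4-VP16 expression switched on by copper sulfate through the metallothionein promoter; nearly all actives have a fitted effect of over 50% in size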; note: potency is the fitted concentration of half-maximal effect
- condition-label: Drosophila S2 Gal4-VP16 UAS-luciferase, luminescence, 20 h; series mostly up to 53.6 µM
Hit rate of the full screen: of about 310,000 compounds, about 11,000 (3.5%) were called active. Not shown: some 8% with an inconclusive outcome. The list comes from a sample in which actives are over-represented; it also holds close analogues and randomly drawn compounds.
parameter-measured: Potency

Worked cases, Potency given:
INSERT INTO results (compound, value_measured) VALUES
  ('COc1ccccc1NC(=S)N1CCN(c2ccc(F)cc2)CC1', 'inactive'),
  ('O=C(CN1C(=O)COc2ccc(Cl)cc21)Nc1ccc(N2CCOCC2)cc1', 'inactive'),
  ('CC(=O)Nc1ccc(NC(=O)[C@@H](NC(=O)c2cccc(C)c2)C(C)C)cc1', 'inactive'),
  ('Cc1ccc(-c2csc(NC3OC(=O)c4ccccc43)n2)cc1 (configuration not stated)', 'inactive'),
  ('Cc1cccc(-c2nc(CS(=O)CC(=O)NC(C)CCc3ccccc3)c(C)o2)c1 (configuration not stated)', 'inactive'),
  ('Cc1c(C(C)(C)O)[nH]c2ccc(C#N)cc12', 'inactive');

q: Query (compound): `O=[N+]([O-])c1ccc2nc(-c3ccccn3)[nH]c2c1` ; field requested: Potency
a: 6.31 µM (active)

q: Please look up its Potency: O=C(NC1CCCC1)C(c1c(F)cccc1Cl)N(C(=O)c1csnn1)C1CC1 (configuration not stated)
a: inactive

q: What value of measured Potency is listed for `O=c1[nH]c2cccnc2n1-c1ccc([N+](=O)[O-])cc1` ?
a: inactive

q: Consider the compound shown here: Cc1cccc(OC(C)C(=O)N2CCc3ccccc3C2)c1 (configuration not stated) What is its recorded Potency?
a: inactive

q: Please give the measured Potency for this compound: `CCOc1ccccc1NC(=S)N1CCN(c2cccc(C)c2C)CC1`
a: 4.47 µM (active)

q: What measured Potency goes with Cc1nn(C(C)C(=O)NCCC2=CCCCC2)c(=O)c2nn(-c3ccccc3)c(C)c12 (configuration not stated) ?
a: inactive

q: Which measured Potency value corresponds to COc1cccc(-c2nc3n(n2)C(c2ccccc2Cl)C(C(N)=O)=C(C)N3)c1 (configuration not stated) ?
a: inactive

* * *

- experiment-summary: VP16 counterscreen qHTS for inhibitors of ROR gamma transcriptional activity;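 note: Gal4-VP16 expression switched on by copper sulfate through the metallothionein promoter; nearly all actives have a fitted effect of over 50% in size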
- condition-label: Drosophila S2 Gal4-VP16 UAS-luciferase, luminescence, 20 h; series mostly up to 53.6 µM
- Experimental: NIH Molecular Libraries Probe Production Network [MLPCN] NIH Chemical Genomics Center [NCGC] Assay Provider: Dan Littman, New York University […] For screening, 600 cells in 4 uL/well were dispensed into white solid 1536-well plates (Grenier) using a solenoid-based dispenser. […] After addition of 1.5 uL Photinus luciferase detection reagent, the plates were incubated 10 min at ambient temperature and then read by a ViewLux (Perkin Elmer) to detect luminescence.
The whole screen tested about 310,000 compounds, of which about 11,000 (3.5%) were called active. Not shown: some 8% with an inconclusive outcome. The call rests on the fitted dose curve; in most records, active means well fitted inhibition curve with a large enough effect; inconclusive means small, poorly fitted or top-dose-only effect, or effect the other way; inactive means flat fitted curve, though single readings scatter. Only a selection was taken, and actives are over-represented in it overall.
Pick from y = active, n = inactive when you respond.

Some solved cases for reference:
INSERT INTO measurements (molecule, cat) VALUES
  ('CCOC(=O)C1CN(S(=O)(=O)c2ccc(OC)cc2)c2cc(Cl)ccc2O1 (stereo not given)', 'n'),
  ('Cc1ccc(NC(=S)NC2CCCC2)cc1', 'y'),
  ('Brc1ccc(-c2noc(-c3ccccc3)n2)o1', 'n'),
  ('c1ccc(-c2noc(-c3cccs3)n2)nc1', 'y'),
  ('C[n+]1ccc(C(=O)NCc2ccccc2)cc1', 'n'),
  ('COc1cc(N=Cc2c(O)c3ccccc3oc2=O)c(OC)cc1Cl', 'n'),
  ('COc1ccc(-c2nc3c(s2)CCc2onc(-c4ccc(OC)cc4)c2-3)cc1', 'n'),
  ('CC1CCCCN1C(=S)NCc1ccccc1 (stereo not given)', 'n'),
  ('O=C(Oc1ccc(-c2nc(-c3ccccn3)no2)cc1)c1ccccc1', 'y'),
  ('Cc1ccc(/C=C2\CCn3c2nc2cc(C(=O)O)ccc2c3=O)c(C)c1', 'n');

q: Fill in: this test's call for `COCCNC(=O)c1ccc2c(c1)ncn2-c1ccc(C)c(Cl)c1` is ___
a: n

q: Short answer needed: outcome of this test for CCOc1ccc(C(C(=O)NC2CCCC2)N(C(=O)c2snc(C(N)=O)c2N)C2CCCC2)cc1 (stereo not given) ?
a: n

q: Could you kindly confirm the outcome this assay logged for `Cc1cc(Br)ccc1NC(=S)NC1CCCC1` ?
a: y

q: // outcome(item) with item = COc1cccc(-c2noc(C3CCCN(C(=O)c4ccc(F)cc4)C3)n2)c1 (stereo not given)
a: n

q: Called result for CC(Oc1ccc(Br)cc1Br)C(=O)NC1CCCC1 (stereo not given)
a: n

* * *

- experiment-summary: VP16 counterscreen qHTS for inhibitors of ROR gamma transcriptional activity;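 note: Gal4-VP16 expression switched on by copper sulfate through the metallothionein promoter; nearly all actives have a fitted effect of over 50% in size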; for activity, negative = inhibition: % is set by controls: 0 for no effect and ±100 for the full control effect
- condition-label: Drosophila S2 Gal4-VP16 UAS-luciferase, luminescence, 20 h; series mostly up to 53.6 µM
Out of some 310,000 compounds screened, about 11,000 (3.5%) were called active. Roughly 8% stayed inconclusive and do not appear here. What follows is part of a selection rich in actives, with near analogues and random picks from the rest.
compounds and their reported activity, negative = inhibition

Worked cases, answers included:
INSERT INTO measurements (compound, parameter_measured, value_measured) VALUES
  ('CC1=NN(C(=O)c2ccc(Br)cc2)C(O)(c2ccccc2)C1 (stereo unspecified)', 'activity, negative = inhibition', '-2.82% [at 10 µM] (inactive)'),
  ('CC(=O)c1ccc(N2CCN(CC(=O)Nc3ccccc3N3CCOCC3)CC2)cc1', 'activity, negative = inhibition', '-11.4% [at 10 µM] (inactive)'),
  ('O=C(c1cn(-c2ccccc2)nc1-c1cc2ccccc2oc1=O)N1CCOCC1', 'activity, negative = inhibition', '7.29% [at 10 µM] (inactive)'),
  ('COc1ccc(CCn2ccc(O)c(Cc3ccc(Cl)cc3Cl)c2=O)cc1OC', 'activity, negative = inhibition', '7.07% [at 10 µM] (inactive)'),
  ('CCCC[C@]12Cc3cc(OC)c(OC)cc3C(O1)C1=C(CC3(CCCCC3)OC1=O)O2', 'activity, negative = inhibition', '7.46% [at 10 µM] (inactive)');

Next compound, please.
q: For the compound `CCNC(=O)N1c2ccccc2Sc2ccccc21` , what activity, negative = inhibition is on record?
a: -17% [at 10 µM] (inactive)

* * *

- experiment-summary: VP16 counterscreen qHTS for inhibitors of ROR gamma transcriptional activity;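 note: Gal4-VP16 expression switched on by copper sulfate through the metallothionein promoter; nearly all actives have a fitted effect of over 50% in size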
- condition-label: Drosophila S2 Gal4-VP16 UAS-luciferase, luminescence, 20 h; series mostly up to 53.6 µM
Hit rate of the full screen: of about 310,000 compounds, about 11,000 (3.5%) were called active. Roughly 8% stayed inconclusive and do not appear here. The call rests on the fitted dose curve; in most records, active means well fitted inhibition curve with a large enough effect; inconclusive means small, poorly fitted or top-dose-only effect, or effect the other way; inactive means flat fitted curve, though single readings scatter. The sample as a whole holds a higher share of actives than the screen did.
// allowed return values: active, inactive

Worked cases, answers included:
INSERT INTO assay_data (compound, cat) VALUES
  ('O=C(CN1CCOC1=O)N1CCCC(Nc2ccc(F)c(F)c2)C1 (centres undefined)', 'inactive'),
  ('Nc1nc(Nc2ccccc2F)nc(NC2CCCCC2)c1[N+](=O)[O-]', 'inactive'),
  ('CC(NC(=S)Nc1ccc(S(N)(=O)=O)cc1)c1ccc2c(c1)OCO2 (centres undefined)', 'inactive'),
  ('COCCNC(=O)c1ccc(Cn2c(SCC(=O)NCC3CCCO3)nc3ccc(Br)cc3c2=O)cc1 (centres undefined)', 'inactive'),
  ('Cc1cccc([C@@H]2[C@@H]3C(=O)N(Cc4ccccc4)C(=O)[C@@H]3[C@]3(C)C(=O)N(c4ccc(Br)cc4)C(=O)N23)c1', 'inactive');

q: Dear colleague, could you share the recorded outcome for `CCCn1nc(NC(=O)C(C)C)c2cc3cc(OC)ccc3nc21` when you have a moment?
a: inactive

q: I would be grateful if you could indicate the recorded call for `Oc1ccc2ccccc2c1N=Nc1nccs1` .
a: active

q: How did this test come out for CC(NC(=S)Nc1ccc(OC(F)F)cc1)c1ccc(F)cc1 (centres undefined) ?
a: active

q: // param item: O=C(CCCn1c(SCC(=O)c2ccccc2)nc2ccccc2c1=O)NCC1CCCO1 (centres undefined) ; yields the recorded call
a: inactive

q: Can you look up the reported call for `Oc1c(C=Nc2cccc3nsnc23)ccc2ccccc12` for me?
a: inactive

q: What did the test return for `C/C(=N\NC(=S)Nc1ccc(C)cc1)c1cc2ccccc2o1` ?
a: active

q: // outcome(item) with item = `CC1CCN(C(=O)c2ccccc2NC(=O)Cc2ccccc2)CC1`
a: inactive

q: Answer briefly: the call reported for COc1ccc(NC(=O)c2cccc3c2C(=O)N(CC2CCCO2)C3)cc1OC (centres undefined) in this assay.
a: inactive

q: Field: outcome | Entry: `COc1ccc(C(=O)CSc2nnc(COc3ccccc3)n2Cc2ccco2)cc1`
a: inactive

// provenance: PubChem BioAssay AID2546
